- Tested on: primary human NK cells
- ASSAY_COMMENT: NK cell activation assessed by cytokine secretion (coculture with K562 NucRed target cells)
- Format: cell-based
- CONDITION_SUMMARY: K562, NK cells cocultured with K562 NucRed, 1:1 E/T, 10 μM compound, read-out: TNFα secretion, fold change over baseline
// fold induction at 10 µM lookup, one value per entry
PARAMETER: fold induction at 10 µM

- Cn1cnnc1[C@@H]1C[C@@H]1c1cccc(N2Cc3c(ccnc3C(F)(F)F)C2=O)c1: 1.01 to 2
- C[C@H](Cc1nncn1C)c1cccc(N2Cc3c(cc(CN4CC(C)(O)C4)cc3C(F)(F)F)C2=O)c1: 2.01 to 5
- C[C@H](Cc1nncn1C)c1ccnc(NC(=O)c2cccc(C(F)(F)F)n2)c1: 1.01 to 2
- Cn1cnnc1CC1(c2cccc(NC(=O)c3nc4c(C(F)(F)F)cccc4[nH]3)c2)COC1: 2.01 to 5
- Cc1cc(C(=O)Nc2cccc([C@@H](C)Cc3nncn3C)c2)nc(C2CC2)n1: 1.01 to 2

* * *

- TARGET_OF_ASSAY: Cbl-b (Homo sapiens, UniProt Q13191)
- Sequence (Q13191 36-427): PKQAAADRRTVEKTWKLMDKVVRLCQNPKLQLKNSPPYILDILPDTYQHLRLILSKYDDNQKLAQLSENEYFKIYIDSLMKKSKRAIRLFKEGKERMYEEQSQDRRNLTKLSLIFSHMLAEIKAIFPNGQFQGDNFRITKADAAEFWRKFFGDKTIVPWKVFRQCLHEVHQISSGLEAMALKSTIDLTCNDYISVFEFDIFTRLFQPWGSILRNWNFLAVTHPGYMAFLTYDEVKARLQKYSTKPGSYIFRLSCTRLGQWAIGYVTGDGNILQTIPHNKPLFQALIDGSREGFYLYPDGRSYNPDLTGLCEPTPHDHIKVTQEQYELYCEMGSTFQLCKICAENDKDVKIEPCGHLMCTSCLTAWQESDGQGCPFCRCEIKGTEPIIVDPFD
- ASSAY_COMMENT: Cbl-b activity assay (Cbl-b inhibition assay), TR-FRET of Cbl-b interaction with UbcH5B-Ub
- Format: biochemical
- CONDITION_SUMMARY: assay buffer with 100 mM NaCl, 60 nM Src kinase; read-out: Cbl-b activity IC50
pIC50: −log10 of the molar value.
// pIC50 lookup, one value per entry
PARAMETER: pIC50

• COc1nc(C(=O)Nc2cccc([C@H](C)Sc3nncn3C)c2)cc2ccccc12 = 6.52 to 7.00
• C[C@H](Cc1nncn1C)c1cccc(NC(=O)c2cc(C(=O)N[C@@H]3CCNC3)ccn2)c1 = 5.00 to 5.52
• Cc1cc(C(=O)Nc2cccc([C@H](C)Cc3nncn3C)c2)nc2ccnn12 = 6.52 to 7.00
• C[C@H](Sc1nncn1C)c1cccc(NC(=O)c2cc3cc(OCC(=O)O)ccc3cn2)c1 = 6.00 to 6.52
• Cn1cnnc1CC1(c2cccc(NC(=O)c3cc(CN4CCC5(CC5)C4)cc(C4CC4)n3)c2)COC1 = > 7.00
• Cn1cnnc1CC1(c2cccc(N3Cc4c(cc(CN5CCOC6(CCC6)C5)cc4C(F)(F)F)C3=O)c2)COC1 = > 7.00
• C[C@@H]1CN(Cc2cc3c(c(C(F)(F)F)c2)CN(c2cccc(C4(Cc5nncn5C)COC4)c2)C3=O)CCO1 [Example 663b] = > 7.00

* * *

- Test system: T-cells
- ASSAY_COMMENT: In vivo activity: CD25 expression on CD4+ or CD8+ T-cells of mice stimulated with anti-CD3 antibody
- CONDITION_SUMMARY: 180 mpk PO BID, 2 μg anti-CD3 antibody, 24 hours
- Procedure: A method of determining the pharmacodynamic profile of Cbl-b inhibitors was performed by dosing strains of mice with competent immune systems such as C57BL/6 or BALB/c with a Cbl-b inhibitor. […] The level of immune activation was then assessed by analysis of plasma cytokine levels and/or expression of activation markers on immune cells (e.g. T-cells). […] Cytokines measured included IL-2, IFNγ, and TNFα. […] Readouts were reported as fold change over baseline. […]
PARAMETER: CD4+ T-cell % CD25+

• C[C@H](c1cc2c(c(C(F)(F)F)c1)CN(c1cccc(C3([C@H](F)c4nncn4C)COC3)c1)C2=O)N1CCC2(CC2)C1 (stereo in doubt) = A (A indicates >2.50)
• Cn1cnnc1CC1(c2cccc(NC(=O)c3cc(CN4CCC5(CC5)C4)cc(C4CC4)n3)c2)COC1 = A (A indicates >2.50)

* * *

- Test system: T-cell
- ASSAY_COMMENT: CD25 cell surface staining on T-cells co-stimulated with anti-CD3 and anti-CD28 antibody (Biological Example 2)
- Format: cell-based, human
- CONDITION_SUMMARY: Homo sapiens, T-cell, 1 μM compound; primary human total T-cells; baseline = anti-CD3/anti-CD28 stimulated cells without inhibitor; read-out: CD25 staining, Anti-CD3/Anti-CD28 stimulation, fold change over baseline
PARAMETER: fold induction at 1 µM

* C[C@H](Cc1nncn1C)c1cccc(N2Cc3c(cc([C@@H](C)N4CC[C@H](F)C4)cc3C(F)(F)F)C2=O)c1 | 1.01 to 1.3
* Cn1cnnc1C(F)(F)[C@@](C)(F)c1cccc(N2Cc3c(cc(CN4CC[C@H](F)C4)cc3C(F)(F)F)C2=O)c1 | < 1
* Cc1conc1CC1(c2cccc(NC(=O)c3cc(CN4CCC5(CC5)C4)cc(C4CC4)n3)c2)COC1 | 1.31 to 1.5
* Cn1cnnc1C(F)(F)[C@](C)(F)c1cccc(N2Cc3c(cc(C(=O)N4CC(C(F)F)C4)cc3C(F)(F)F)C2=O)c1 | 1.01 to 1.3
* C[C@H](c1cc2c(c(C(F)(F)F)c1)CN(c1cccc(C3(Cc4nncn4C)COC3)c1)C2=O)N1CCC(F)(F)C1 | 1.31 to 1.5
* Cn1cnnc1C[C@]1(c2cccc(N3Cc4c(cc(CN5CCC6(CC6)C5)cc4C(F)(F)F)C3=O)c2)CCOC1 (single isomer, unassigned) [Compound 517b] | 1.01 to 1.3
* C[C@H](c1cc2c(c(C(F)(F)F)c1)CN(c1cccc(C3(Cc4nncn4C)COC3)c1)C2=O)N1CCC2(CC1)CC2 [Example 558b] | 1.01 to 1.3
* Cn1cnnc1CC1(c2cccc(NC(=O)c3cc(CN4C[C@H]5C[C@H]5C4)cc(C4CC4)n3)c2)COC1 | 1.31 to 1.5
* Cn1cnnc1CC1(c2cccc(N3Cc4c(cc(CN5CC(C(=O)O)C5)cc4C(F)(F)F)C3=O)c2)COC1 | 1.01 to 1.3
* C[C@H](O)CNc1cc([C@H](C)Cc2nncn2C)cc(N2Cc3c(cccc3C(F)(F)F)C2=O)n1 | 1.01 to 1.3
* C[C@H](Cc1nncn1C)c1cccc(N2Cc3c(cc([C@@H]4CCCNC4)cc3C(F)(F)F)C2=O)c1 | 1.31 to 1.5
* Cn1cnnc1C(F)(F)[C@](C)(F)c1cccc(N2Cc3c(cc(CN4CCC(F)(F)C4)cc3C(F)(F)F)C2=O)c1 | 1.01 to 1.3
* Cn1cnnc1[C@@H]1C[C@@H]1c1cccc(N2Cc3c(ccnc3C(F)(F)F)C2=O)c1 | 1.01 to 1.3
* Cn1cnnc1CC1(c2cccc(N3Cc4c(cc(CO)cc4C(F)(F)F)C3=O)c2)COC1 | 1.31 to 1.5
* Cn1cnnc1CC1(c2cccc(N3Cc4c(cc(CN5CC6CC6(C)C5)cc4C(F)(F)F)C3=O)c2)COC1 (stereo not drawn) | 1.01 to 1.3
* C[C@H](c1cc2c(c(C(F)(F)F)c1)CN(c1cccc(C3(Cc4nncn4C)COC3)c1)C2=O)N1CCC(C)(F)CC1 [Example 553b] | > 1.76
* C[C@H](Cc1nncn1C)c1cccc(N2Cc3c(cc(CN4CC[C@](C)(O)C4)cc3C(F)(F)F)C2=O)c1 | 1.31 to 1.5
* Cn1cnnc1CC1(c2cccc(N3Cc4c(cc(CN5CC(C)(C#N)C5)cc4C(F)(F)F)C3=O)c2)COC1 | 1.31 to 1.5
* Cn1cnnc1C(F)(F)[C@](C)(F)c1cccc(N2Cc3c(cc(CN4CC[C@@H](S(C)(=O)=O)C4)cc3C(F)(F)F)C2=O)c1 | 1.01 to 1.3
* Cn1cnnc1CC1(c2cccc(N3Cc4c(cccc4C(F)(F)F)C3=O)c2)CC(F)(F)C1 | 1.01 to 1.3
* Cc1cc(C(=O)Nc2cccc([C@]3(Cc4nncn4C)CCOC3)c2)nc(C2CC2)n1 (single isomer, unassigned) [Compound 534a] | 1.01 to 1.3
* Cn1cnnc1CC1(c2cccc(N3Cc4c(cc(C(F)(F)CO)cc4C(F)(F)F)C3=O)c2)COC1 | 1.01 to 1.3
* CN1CCC(=O)C(Cc2cc3c(c(C(F)(F)F)c2)CN(c2cccc(C4(Cc5nncn5C)COC4)c2)C3=O)C1 (stereo not drawn) | 1.01 to 1.3
* Cn1cnnc1CC1(c2cccc(N3Cc4c(cc(CN5CC[C@H]6C[C@H]65)cc4C(F)(F)F)C3=O)c2)COC1 (single isomer, unassigned) [Compound 486a] | 1.51 to 1.75
* C[C@H](Cc1nncn1C)c1cccc(N2Cc3c(cc(CN4CC(F)C4)cc3C(F)(F)F)C2=O)c1 | 1.01 to 1.3
* Cn1cnnc1CC1(c2cccc(N3Cc4c(cc(CN5CCC(F)(F)C5)cc4C(F)(F)F)C3=O)c2)COC1 | 1.01 to 1.3
* Cc1cc(C(=O)Nc2cccc(C3(Cc4nocc4C)COC3)c2)nc(C2CC2)n1 | 1.31 to 1.5

* * *

- Test system: T-cell
- ASSAY_COMMENT: CD25 cell surface staining on T-cells co-stimulated with anti-CD3 and anti-CD28 antibody (Biological Example 2)
- Format: cell-based, human
- CONDITION_SUMMARY: Homo sapiens, T-cell, 4 μM compound; primary human total T-cells; baseline = anti-CD3/anti-CD28 stimulated cells without inhibitor; read-out: CD25 staining, Anti-CD3/Anti-CD28 stimulation, fold change over baseline
PARAMETER: fold induction at 4 µM

• C[C@H](Cc1nncn1C)c1cccc(N2Cc3c(cc([C@@H]4CCCNC4)cc3C(F)(F)F)C2=O)c1 [Compound 382] = 1.51 to 1.75
• Cn1cnnc1CC1(c2cccc(N3Cc4c(cc(CN5CC[C@@H](C#N)C5)cc4C(F)(F)F)C3=O)c2)COC1 [Compound 421] = 1.31 to 1.5
• CC(O)c1cc2c(c(C(F)(F)F)c1)CN(c1cccc([C@@](C)(F)C(F)(F)c3nncn3C)c1)C2=O (some centres unmarked) [Compound 446] = 1.01 to 1.3
• Cn1cnnc1CC1(c2cccc(N3Cc4c(cc(CN5CC(C)(F)C5)cc4C(F)(F)F)C3=O)c2)COC1 [Compound 424] = 1.51 to 1.75
• C[C@H]1C=CCN1Cc1cc2c(c(C(F)(F)F)c1)CN(c1cccc(C3(Cc4nncn4C)COC3)c1)C2=O [Compound 427] = 1.51 to 1.75
• C[C@H](Cc1nncn1C)c1cccc(N2Cc3c(cc([C@H](C)N4CC(O)C4)cc3C(F)(F)F)C2=O)c1 [Compound 406] = 1.31 to 1.5
• C[C@H](Cc1nncn1C)c1cccc(N2Cc3c(cc(N(C)[C@H]4CCNC4)cc3C(F)(F)F)C2=O)c1 [Compound 380] = 1.51 to 1.75
• Cn1cnnc1C(F)[C@](C)(F)c1cccc(N2Cc3c(cccc3C(F)(F)F)C2=O)c1 (stereo in doubt) [Compound 478a] = 1.01 to 1.3
• C[C@H](Cc1nncn1C)c1cccc(N2Cc3c(cc(CN4CC[C@H](F)C4)cc3C(F)(F)F)C2=O)c1 [Compound 399] = 1.31 to 1.5
• C[C@H](Cc1nncn1C)c1cccc(N2Cc3c(cc(CN4CC(C)(O)C4)cc3C(F)(F)F)C2=O)c1 [Compound 397] = 1.31 to 1.5
• C[C@H](Cc1nncn1C)c1cccc(N2Cc3c(cc(CN4CC(O)C(F)(F)C4)cc3C(F)(F)F)C2=O)c1 (some centres unmarked) [Compound 417] = 1.31 to 1.5
• C[C@H](Cc1nncn1C)c1cccc(N2Cc3c(cc(CN4C[C@@H](O)[C@H](F)C4)cc3C(F)(F)F)C2=O)c1 [Compound 395] = 1.31 to 1.5
• Cn1cnnc1CC1(c2cccc(N3Cc4c(cc(CN5CC(C#N)C5)cc4C(F)(F)F)C3=O)c2)COC1 [Compound 423] = 1.31 to 1.5
• Cn1cnnc1CC1(c2cccc(N3Cc4c(cc(CN5CC(C)(C#N)C5)cc4C(F)(F)F)C3=O)c2)COC1 [Compound 425] = 1.51 to 1.75
